tgt: bovine brain tubulin (Bos taurus, UniProt P81947+Q6B856)
Construct: MAP-rich bovine brain tubulin (99% purity), Hela cell tubulin (90% purity); purchased Cytoskeleton (Denver, Colo.); host or cells: bovine brain
procedure_text: Competition of [3H]-Probe 1 photolabeling of tubulin
Format: binding
run_parameters: 37° C.
measured_parameter: reduction of Probe 1 photolabeling of tubulin

compound: CC[C@]1(O)C[C@@H]2CN(CCc3c([nH]c4ccccc34)[C@@](C(=O)OC)(c3cc4c(cc3OC)N(C)[C@H]3[C@@](O)(C(=O)OC)[C@H](OC(C)=O)[C@]5(CC)C=CCN6CC[C@]43[C@@H]65)C2)C1 [Vinblastine]
reading: about 50%
//
compound: CC[C@H](C)[C@@H]([C@@H](CC(=O)N1CCC[C@H]1[C@H](OC)[C@@H](C)C(=O)N[C@@H](Cc1ccccc1)c1nccs1)OC)N(C)C(=O)[C@@H](NC(=O)[C@H](C(C)C)N(C)C)C(C)C [Dolastatin-10]
reading: about 75%
//
compound: CN[C@H](C(=O)N[C@H](C(=O)N(C)[C@H](/C=C(\C)C(=O)O)C(C)C)C(C)(C)C)C(C)(C)c1ccc(C(=O)c2ccccc2)cc1 [Probe 1]
reading: about 75%
//
compound: CN[C@H](C(=O)N[C@H](C(=O)N(C)[C@H](/C=C(\C)C(=O)O)C(C)C)C(C)(C)C)C(C)(C)c1ccccc1 [HTI-286]
reading: about 50%

====

tgt: bovine brain tubulin (Bos taurus, UniProt P81947+Q6B856)
Construct: MAP-rich bovine brain tubulin (99% purity), Hela cell tubulin (90% purity); purchased Cytoskeleton (Denver, Colo.); host or cells: bovine brain
procedure_text: Competition of [3H]-Probe 1 photolabeling of tubulin
Format: binding
run_parameters: 37° C.; 100 μM competitor; control (no competitor) = 100
Marks after values point to notes of the source that are not given here.
measured_parameter: Probe 1 photolabeling of tubulin (% of no-competitor control)

Could you tell me which Probe 1 photolabeling of tubulin (% of no-competitor control) is on file for CN[C@H](C(=O)N[C@H](C(=O)N(C)[C@H](/C=C(\C)C(=O)O)C(C)C)C(C)(C)C)C(C)(C)c1ccc(C(=O)c2ccccc2)cc1 [Probe 1] ?
24^† %

Could you tell me which Probe 1 photolabeling of tubulin (% of no-competitor control) is on file for CC(=O)O[C@H]1C(=O)[C@@]2(C)[C@H]([C@H](OC(=O)c3ccccc3)[C@]3(O)C[C@H](OC(=O)[C@H](O)[C@@H](NC(=O)c4ccccc4)c4ccccc4)C(C)=C1C3(C)C)[C@]1(OC(C)=O)CO[C@@H]1C[C@@H]2O [Paclitaxel] ?
173 ± 7%

Could you tell me which Probe 1 photolabeling of tubulin (% of no-competitor control) is on file for CC[C@H](C)[C@@H]([C@@H](CC(=O)N1CCC[C@H]1[C@H](OC)[C@@H](C)C(=O)N[C@@H](Cc1ccccc1)c1nccs1)OC)N(C)C(=O)[C@@H](NC(=O)[C@H](C(C)C)N(C)C)C(C)C [Dolastatin-10] ?
26^† %

Could you tell me which Probe 1 photolabeling of tubulin (% of no-competitor control) is on file for CN[C@H](C(=O)N[C@H](C(=O)N(C)[C@H](/C=C(\C)C(=O)O)C(C)C)C(C)(C)C)C(C)(C)c1ccccc1 [HTI-286] ?
47^† %

Could you tell me which Probe 1 photolabeling of tubulin (% of no-competitor control) is on file for CC[C@]1(O)C[C@@H]2CN(CCc3c([nH]c4ccccc34)[C@@](C(=O)OC)(c3cc4c(cc3OC)N(C)[C@H]3[C@@](O)(C(=O)OC)[C@H](OC(C)=O)[C@]5(CC)C=CCN6CC[C@]43[C@@H]65)C2)C1 [Vinblastine] ?
52 ± 0.5%

====

Give inhibition of Probe 2 labeling of tubulin for every item shown.
tgt: tubulin (Bos taurus, UniProt P81947+Q6B856)
Construct: MAP-rich bovine brain tubulin (99% purity), Hela cell tubulin (90% purity); purchased Cytoskeleton (Denver, Colo.); host or cells: bovine brain
procedure_text: Competition of [3H]-Probe 2 photolabeling of tubulin
Type: binding, bovine
run_parameters: 100 μM competitor, 2.5 μM tubulin, 0.25 μM [3H]-Probe 2, room temperature
State the answer as a number, implicitly in %.

Could you tell me which inhibition of Probe 2 labeling of tubulin is on file for CN[C@H](C(=O)N[C@H](C(=O)N(C)[C@H](/C=C(\C)C(=O)O)C(C)C)C(C)(C)C)C(C)(C)c1ccccc1 ?
45

Could you tell me which inhibition of Probe 2 labeling of tubulin is on file for CC[C@]1(O)C[C@@H]2CN(CCc3c([nH]c4ccccc34)[C@@](C(=O)OC)(c3cc4c(cc3OC)N(C)[C@H]3[C@@](O)(C(=O)OC)[C@H](OC(C)=O)[C@]5(CC)C=CCN6CC[C@]43[C@@H]65)C2)C1 ?
64

Could you tell me which inhibition of Probe 2 labeling of tubulin is on file for CN[C@H](C(=O)N[C@H](C(=O)N(C)[C@H](/C=C(\C)C(=O)O)C(C)C)C(C)(C)c1ccc(C(=O)c2ccccc2)cc1)C(C)(C)c1ccccc1 ?
12

Could you tell me which inhibition of Probe 2 labeling of tubulin is on file for CC[C@H](C)[C@@H]([C@@H](CC(=O)N1CCC[C@H]1[C@H](OC)[C@@H](C)C(=O)N[C@@H](Cc1ccccc1)c1nccs1)OC)N(C)C(=O)[C@@H](NC(=O)[C@H](C(C)C)N(C)C)C(C)C ?
27

====

tgt: bovine brain tubulin (Bos taurus, UniProt P81947+Q6B856)
Construct: MAP-rich bovine brain tubulin (99% purity), Hela cell tubulin (90% purity)
procedure_text: Competition of [3H]-Probe 1 photolabeling of tubulin
run_parameters: room temperature; 2.5 μM tubulin, 0.25 μM radiolabeled Probe 1; read-out: IC50 for inhibition of Probe 1 photolabeling of tubulin
measured_parameter: IC50 (µM)
State the answer as a number, implicitly in µM.

Could you tell me which IC50 is on file for CN[C@H](C(=O)N[C@H](C(=O)N(C)[C@H](/C=C(\C)C(=O)O)C(C)C)C(C)(C)C)C(C)(C)c1ccccc1 ?
7

Could you tell me which IC50 is on file for CC[C@]1(O)C[C@@H]2CN(CCc3c([nH]c4ccccc34)[C@@](C(=O)OC)(c3cc4c(cc3OC)N(C)[C@H]3[C@@](O)(C(=O)OC)[C@H](OC(C)=O)[C@]5(CC)C=CCN6CC[C@]43[C@@H]65)C2)C1 ?
22

Could you tell me which IC50 is on file for CN[C@H](C(=O)N[C@H](C(=O)N(C)[C@H](/C=C(\C)C(=O)O)C(C)C)C(C)(C)C)C(C)(C)c1ccc(C(=O)c2ccccc2)cc1 ?
5

Could you tell me which IC50 is on file for CC[C@H](C)[C@@H]([C@@H](CC(=O)N1CCC[C@H]1[C@H](OC)[C@@H](C)C(=O)N[C@@H](Cc1ccccc1)c1nccs1)OC)N(C)C(=O)[C@@H](NC(=O)[C@H](C(C)C)N(C)C)C(C)C ?
5

====

tgt: bovine brain tubulin (Bos taurus, UniProt P81947+Q6B856)
Construct: MAP-rich bovine brain tubulin (99% purity), Hela cell tubulin (90% purity); purchased Cytoskeleton (Denver, Colo.); host or cells: bovine brain
procedure_text: Radiolabeled Probe 1 binding by centrifugal gel filtration
run_parameters: 0.5 μM tubulin, 0.005-5 μM radiolabeled Probe 1, room temperature; read-out: apparent KD, radiolabeled probe technique
measured_parameter: pKd
Would you please state pKd, meaning minus log10 of the concentration in mol/L, as a bare number?

Could you tell me which pKd is on file for CN[C@H](C(=O)N[C@H](C(=O)N(C)[C@H](/C=C(\C)C(=O)O)C(C)C)C(C)(C)C)C(C)(C)c1ccc(C(=O)c2ccccc2)cc1 ?
6.46

====

tgt: bovine brain tubulin (Bos taurus, UniProt P81947+Q6B856)
Construct: MAP-rich bovine brain tubulin (99% purity), Hela cell tubulin (90% purity); purchased Cytoskeleton (Denver, Colo.); host or cells: bovine brain
procedure_text: Reversible binding affinity assay (tubulin fluorescence)
run_parameters: rhodamine-labeled tubulin, 90 minutes pre-incubation; read-out: apparent binding constant (KD), fluorescence method
Give Kd for every item shown.
State the answer as a number, implicitly in nM.

Could you tell me which Kd is on file for CN[C@H](C(=O)N[C@H](C(=O)N(C)[C@H](/C=C(\C)C(=O)O)C(C)C)C(C)(C)c1ccc(C(=O)c2ccccc2)cc1)C(C)(C)c1ccccc1 [Probe 2] ?
3600

Could you tell me which Kd is on file for CN[C@H](C(=O)N[C@H](C(=O)N(C)[C@H](/C=C(\C)C(=O)O)C(C)C)C(C)(C)C)C(C)(C)c1ccc(C(=O)c2ccccc2)cc1 [Probe 1] ?
500

Could you tell me which Kd is on file for CN[C@H](C(=O)N[C@H](C(=O)N(C)[C@H](/C=C(\C)C(=O)O)C(C)C)C(C)(C)C)C(C)(C)c1ccccc1 [HTI-286] ?
600
